test: Cytotoxicity against human colon cancer cells; format: functional; conditions: Cancer cell lines, read-out: pTGI (converted)
Entries and their TGI
OBSERVATION_TYPE: TGI (µM)

| MOL_SMILES | OBSERVATION_TYPE | NUMERIC_READOUT |
| --- | --- | --- |
| COc1ccc2c(c1)/C(=C\c1cccc(/C=C3/C(=O)N(C)c4ccc(OC)cc43)n1)C(=O)N2C | TGI | 3.39 |
| O=C1Nc2ccccc2/C1=C\c1cccc(/C=C2/C(=O)Nc3ccccc32)n1 | TGI | 0.776 |
| COc1ccc2c(c1)/C(=C\c1cccc(/C=C3/C(=O)Nc4ccc(OC)cc43)n1)C(=O)N2 | TGI | 4.68 |
| O=C1Nc2cc(Cl)ccc2/C1=C\c1cccc(/C=C2/C(=O)Nc3cc(Cl)ccc32)n1 | TGI | 4.9 |

* * *

Entries and their IC50
assay: Inhibition of plasma membrane electron transport pathway in human HL60 cells by WST1 reduction assay; type: cell-based; conditions: HL-60

| MOL_SMILES | IC50 |
| --- | --- |
| O=C1Nc2cccc(Cl)c2/C1=C\c1cccc(/C=C2/C(=O)Nc3cccc(Cl)c32)n1 | > 117 µM |
| COc1ccc2c(c1)/C(=C\c1cccc(/C=C3/C(=O)Nc4ccc(OC)cc43)n1)C(=O)N2 | > 117 µM |
| COc1cc2c(cc1C)NC(=O)/C2=C/c1cccc(/C=C2/C(=O)Nc3cc(C)c(OC)cc32)n1 | > 117 µM |
| CN(C)c1ccc2c(c1)/C(=C\c1cccc(/C=C3/C(=O)Nc4ccc(N(C)C)cc43)n1)C(=O)N2 | > 117 µM |
| O=C1Nc2cc(Cl)ccc2/C1=C\c1cccc(/C=C2/C(=O)Nc3cc(Cl)ccc32)n1 | > 117 µM |
| O=C1Nc2ccc(O)cc2/C1=C\c1cccc(/C=C2/C(=O)Nc3ccc(O)cc32)n1 | > 117 µM |
| CC(=O)n1c(=O)/c(=C/c2c[nH]c3ccccc23)n(C(C)=O)c(=O)/c1=C/c1c[nH]c2ccccc12 | > 117 µM |
| O=C1Nc2ccc(C(=O)O)cc2/C1=C\c1cccc(/C=C2/C(=O)Nc3ccc(C(=O)O)cc32)n1 | > 117 µM |
| O=C1Nc2ccc(Cl)cc2/C1=C\c1cccc(/C=C2/C(=O)Nc3ccc(Cl)cc32)n1 | > 117 µM |
| O=c1[nH]/c(=C\c2c[nH]c3ccccc23)c(=O)[nH]/c1=C\c1c[nH]c2ccccc12 | > 117 µM |
| CN1C(=O)/C(=C/c2cccc(/C=C3/C(=O)N(C)c4ccccc43)n2)c2ccccc21 | > 117 µM |
| O=C1Nc2ccc(F)cc2/C1=C\c1cccc(/C=C2/C(=O)Nc3ccc(F)cc32)n1 | > 117 µM |
| Cc1cc2c(cc1O)/C(=C\c1cccc(/C=C3/C(=O)Nc4cc(C)c(O)cc43)n1)C(=O)N2 | > 117 µM |

* * *

experiment: Cytotoxicity against human breast cancer cells; format: functional; conditions: Cancer cell lines
Structures can show the parent of a compound that is named as a salt.
OBSERVATION_TYPE: log10 GI50 (log10 of the value in µM)

| COMPOUND | NUMERIC_READOUT |
| --- | --- |
| O=C1Nc2ccc(O)cc2/C1=C\c1cccc(/C=C2/C(=O)Nc3ccc(O)cc32)n1 | 1.61 |
| CC[C@]1(O)C[C@H]2CN(CCc3c([nH]c4ccccc34)[C@@](C(=O)OC)(c3cc4c(cc3OC)N(C=O)[C@H]3[C@@](O)(C(=O)OC)[C@H](OC(C)=O)[C@]5(CC)C=CCN6CC[C@]43[C@@H]65)C2)C1 [VINCRISTINE SULFATE] | -0.50 |
| COc1ccc2[nH]cc(/C=c3\[nH]c(=O)/c(=C/c4c[nH]c5ccc(OC)cc45)[nH]c3=O)c2c1 | 1.90 |
| CN1C(=O)/C(=C/c2cccc(/C=C3/C(=O)N(C)c4ccccc43)n2)c2ccccc21 | 0.95 |
| O=c1[nH]/c(=C\c2c[nH]c3ccccc23)c(=O)[nH]/c1=C\c1c[nH]c2ccccc12 | 1.81 |
| O=C1Nc2cc(Cl)ccc2/C1=C\c1cccc(/C=C2/C(=O)Nc3cc(Cl)ccc32)n1 | 0.36 |
| COc1ccc2c(c1)/C(=C\c1cccc(/C=C3/C(=O)Nc4ccc(OC)cc43)n1)C(=O)N2 | 0.17 |

* * *

experiment: Cytotoxicity against human breast cancer cells; assay type: functional; conditions: Cancer cell lines, read-out: pTGI (converted)
Entries and their TGI

| MOL_SMILES | TGI, µM |
| --- | --- |
| CN1C(=O)/C(=C/c2cccc(/C=C3/C(=O)N(C)c4ccccc43)n2)c2ccccc21 | 33.1 |
| O=C1Nc2ccc(F)cc2/C1=C\c1cccc(/C=C2/C(=O)Nc3ccc(F)cc32)n1 | 14.5 |
| Cc1cc2c(cc1O)/C(=C\c1cccc(/C=C3/C(=O)Nc4cc(C)c(O)cc43)n1)C(=O)N2 | 87.1 |
| O=C1Nc2ccc(Cl)cc2/C1=C\c1cccc(/C=C2/C(=O)Nc3ccc(Cl)cc32)n1 | 4.17 |
| CN(C)c1ccc2c(c1)/C(=C\c1cccc(/C=C3/C(=O)Nc4ccc(N(C)C)cc43)n1)C(=O)N2 | 69.2 |
| O=C1Nc2ccc(O)cc2/C1=C\c1cccc(/C=C2/C(=O)Nc3ccc(O)cc32)n1 | 85.1 |

* * *

assay: Cytotoxicity against human renal cancer cells; type: functional; conditions: Cancer cell lines, read-out: pTGI (converted)
OBSERVATION_TYPE: log10 of TGI (log10 of the value in µM)

| MOL_SMILES | OBSERVATION_TYPE | NUMERIC_READOUT |
| --- | --- | --- |
| O=C1Nc2ccccc2/C1=C\c1cccc(/C=C2/C(=O)Nc3ccccc32)n1 | log10 of TGI | 0.21 |
| O=C1Nc2ccc(Cl)cc2/C1=C\c1cccc(/C=C2/C(=O)Nc3ccc(Cl)cc32)n1 | log10 of TGI | 0.47 |
| CN1C(=O)/C(=C/c2cccc(/C=C3/C(=O)N(C)c4ccccc43)n2)c2ccccc21 | log10 of TGI | 1.37 |
| O=C1Nc2ccc(O)cc2/C1=C\c1cccc(/C=C2/C(=O)Nc3ccc(O)cc32)n1 | log10 of TGI | 1.84 |
| COc1ccc2c(c1)/C(=C\c1cccc(/C=C3/C(=O)N(C)c4ccc(OC)cc43)n1)C(=O)N2C | log10 of TGI | 0.72 |
| O=C1Nc2cccc(Cl)c2/C1=C\c1cccc(/C=C2/C(=O)Nc3cccc(Cl)c32)n1 | log10 of TGI | 0.18 |
| COc1ccc2c(c1)/C(=C\c1cccc(/C=C3/C(=O)Nc4ccc(OC)cc43)n1)C(=O)N2 | log10 of TGI | 0.63 |
| O=C1Nc2ccc(F)cc2/C1=C\c1cccc(/C=C2/C(=O)Nc3ccc(F)cc32)n1 | log10 of TGI | 1.11 |
| O=C1Nc2ccc(Br)cc2/C1=C\c1cccc(/C=C2/C(=O)Nc3ccc(Br)cc32)n1 | log10 of TGI | 1.34 |
| O=C1Nc2cc(Cl)ccc2/C1=C\c1cccc(/C=C2/C(=O)Nc3cc(Cl)ccc32)n1 | log10 of TGI | 0.52 |

* * *

experiment: Cytotoxicity against human leukemia cells; assay type: functional; conditions: Leukemia cell
Where a name gives a salt, the structure may show the parent alone.

| COMPOUND | GI50 [µM] |
| --- | --- |
| CN(C)c1ccc2c(c1)/C(=C\c1cccc(/C=C3/C(=O)Nc4ccc(N(C)C)cc43)n1)C(=O)N2 | 2.34 |
| O=C1Nc2ccc(O)cc2/C1=C\c1cccc(/C=C2/C(=O)Nc3ccc(O)cc32)n1 | 17.4 |
| COc1ccc2c(c1)/C(=C\c1cccc(/C=C3/C(=O)N(C)c4ccc(OC)cc43)n1)C(=O)N2C | 38 |
| O=C1Nc2ccc(C(=O)O)cc2/C1=C\c1cccc(/C=C2/C(=O)Nc3ccc(C(=O)O)cc32)n1 | 6.17 |
| O=C1Nc2ccc(Cl)cc2/C1=C\c1cccc(/C=C2/C(=O)Nc3ccc(Cl)cc32)n1 | 0.661 |
| CN1C(=O)/C(=C/c2cccc(/C=C3/C(=O)N(C)c4ccccc43)n2)c2ccccc21 | 3.09 |
| O=C1Nc2ccc(S(=O)(=O)O)cc2/C1=C\c1cccc(/C=C2/C(=O)Nc3ccc(S(=O)(=O)O)cc32)n1 | 93.3 |
| O=C1Nc2cccc(Cl)c2/C1=C\c1cccc(/C=C2/C(=O)Nc3cccc(Cl)c32)n1 | 0.0912 |
| Cc1cc2c(cc1O)/C(=C\c1cccc(/C=C3/C(=O)Nc4cc(C)c(O)cc43)n1)C(=O)N2 | 27.5 |
| O=C(O)CCC(=O)c1ccc2c(c1)/C(=C\c1cccc(/C=C3/C(=O)Nc4ccc(C(=O)CCC(=O)O)cc43)n1)C(=O)N2 | 15.5 |
| O=C1Nc2cc(Cl)ccc2/C1=C\c1cccc(/C=C2/C(=O)Nc3cc(Cl)ccc32)n1 | 1.45 |
| O=C1Nc2ccc(F)cc2/C1=C\c1cccc(/C=C2/C(=O)Nc3ccc(F)cc32)n1 | 1.17 |
| CC[C@]1(O)C[C@H]2CN(CCc3c([nH]c4ccccc34)[C@@](C(=O)OC)(c3cc4c(cc3OC)N(C=O)[C@H]3[C@@](O)(C(=O)OC)[C@H](OC(C)=O)[C@]5(CC)C=CCN6CC[C@]43[C@@H]65)C2)C1 [VINCRISTINE SULFATE] | 0.1 |
| COc1cc2c(cc1C)NC(=O)/C2=C/c1cccc(/C=C2/C(=O)Nc3cc(C)c(OC)cc32)n1 | 4.37 |
| COc1ccc2c(c1)/C(=C\c1cccc(/C=C3/C(=O)Nc4ccc(OC)cc43)n1)C(=O)N2 | 0.617 |
| CC(=O)n1c(=O)/c(=C/c2c[nH]c3ccccc23)n(C(C)=O)c(=O)/c1=C/c1c[nH]c2ccccc12 | 93.3 |
| O=C1Nc2ccccc2/C1=C\c1cccc(/C=C2/C(=O)Nc3ccccc32)n1 | 0.234 |
